Source listed as PubChem BioAssay.

Reported composite z-score values follow for various molecules
System: Fibrinogen (Alexa647-labelled)
EXPERIMENTAL_PROTOCOL: fibrinogen binders on compound microarrays, profiling panel, artefact control for SMM control-protein annotation, biochemical, small-molecule microarray, 635/667 nm fluorescence (AID 1131);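 further: z-score merges 667 nm fluorescence with per-spot signal-to-noise over triplicate slides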
MEASUREMENT_SETUP: fibrinogen-A647 binding fluorescence, higher = more signal
ENDPOINT: composite z-score

MOLECULAR_STRING: CO[C@H]1O[C@H](CO)[C@@H](OC(=O)Nc2ccccc2)[C@H](OC(=O)Nc2ccccc2)[C@@H]1OC(=O)Nc1ccccc1
VALUE_MEASURED: 1.01
//
MOLECULAR_STRING: C=CC(=C)[C@H]1Oc2ccccc2S(=O)(=O)N2CCC[C@@H]12
VALUE_MEASURED: 0.224
//
MOLECULAR_STRING: C=CCOC(=O)[C@H]1[C@@H]2C(=O)O[C@@H](c3ccccc3)[C@@H](c3ccccc3)N2[C@@H](c2ccc(OCCOC(=O)[C@H]3C[C@H]4C(=O)N[C@@H](CCCCNC(C)=O)C(=O)N4[C@H]3c3cccc(OCCO)c3)cc2)[C@]12C(=O)Nc1ccccc12
VALUE_MEASURED: 0.525
//
MOLECULAR_STRING: [N-]=[N+]=Nc1ccccc1[C@@H]1OC(c2ccc(OCCCO)cc2)=N[C@]1(CCS(=O)(=O)c1ccccc1)C(N)=O
VALUE_MEASURED: 1.02
//
MOLECULAR_STRING: COC(=O)[C@@]1(Cc2ccc(OC)cc2)[C@@H]2C(=CC(=O)[C@H]2CC(=O)C(=O)N2CCCC2)CN1C(=O)c1ccccc1
VALUE_MEASURED: 0.802
//
MOLECULAR_STRING: COc1ccc(C#Cc2ccc3c(c2)[C@]2(C(=O)N3)[C@H](C(=O)Nc3nc4ccccc4s3)[C@H]3C(=O)O[C@H](c4ccccc4)[C@H](c4ccccc4)N3[C@@H]2c2ccc(O)cc2)cc1
VALUE_MEASURED: 0.997

----------
Reported z-score values follow for various molecules
EXPERIMENTAL_PROTOCOL: inhibitors of hydroxyurea-induced Chk1 phosphorylation, primary screen, imaging, HeLa, phospho-Chk1 nuclear intensity (AID 1187); further: test concentration not given here
MEASUREMENT_SETUP: hydroxyurea-induced phospho-Chk1 immunofluorescence imaging, higher = more signal
Activity calls are given as the source filed them. How the calls were made is not given here.
ENDPOINT: z-score

MOLECULE: O=C1NC(=O)C2C1C=CC(C(O)c1cc(C(F)(F)F)cc(C(F)(F)F)c1)N2Nc1ccccn1 (stereo not drawn)
VALUE_MEASURED: 0.178 (inactive)
//
MOLECULE: COC(=O)c1c(CC[C@@H](CO)NC(=O)NCCn2cc(C3(O)CCCC3)nn2)oc(C(C)=O)c1C(=O)OC
VALUE_MEASURED: -0.0849 (inactive)
//
MOLECULE: [N-]=[N+]=NCc1ccccc1C[C@]1(C(N)=O)COC(c2ccc(OCCCO)cc2)=N1
VALUE_MEASURED: -0.959 (inactive)
//
MOLECULE: C=C(/C(=C/C[C@H](OC(C)=O)c1ccccc1OCCO)c1cnc2ccccc2c1)C(C)C
VALUE_MEASURED: -0.141 (inactive)
//
MOLECULE: CN(C)C(=O)[C@@]1(CCS(=O)(=O)c2ccccc2)COC(c2ccc(OCCCO)cc2)=N1
VALUE_MEASURED: -0.023 (inactive)
//
MOLECULE: C=CCOC(=O)[C@H]1[C@@H]2C(=O)O[C@@H](c3ccccc3)[C@@H](c3ccccc3)N2[C@@H](c2ccc(OCCOC(=O)[C@H]3C[C@H]4C(=O)N[C@@H](CCCC[N+](C)(C)C)C(=O)N4[C@H]3c3ccc(O)cc3)cc2)[C@]12C(=O)Nc1ccc(I)cc12
VALUE_MEASURED: -0.62 (inactive)
//
MOLECULE: CO[C@H]1O[C@H](CO)[C@@H](OC(=O)Nc2ccccc2)[C@H](OC(=O)Nc2ccccc2)[C@@H]1OC(=O)Nc1ccccc1
VALUE_MEASURED: 0.502 (inactive)
//
MOLECULE: C=CC[C@@]1(C(=O)NCCN2CCOCC2)N=C(c2ccc(OCCCO)cc2)O[C@@H]1c1ccccc1N=[N+]=[N-]
VALUE_MEASURED: -0.0928 (inactive)
//
MOLECULE: C=CCOC(=O)[C@H]1[C@@H]2C(=O)O[C@@H](c3ccccc3)[C@@H](c3ccccc3)N2[C@@H](c2ccc(OCCOC(=O)[C@H]3C[C@H]4C(=O)N[C@@H](CCCCNC(C)=O)C(=O)N4[C@H]3c3ccc(O)cc3)cc2)[C@]12C(=O)Nc1ccc(I)cc12
VALUE_MEASURED: -0.782 (inactive)
//
MOLECULE: O=C1C[C@@](C(=O)NC2CC2)(c2ccc([N+](=O)[O-])cc2)[C@@H](c2ccc(CO)cc2I)N1C1CCCCC1
VALUE_MEASURED: -0.233 (inactive)
//
MOLECULE: O=C1N[C@@H](Cc2ccccc2)C(=O)N2[C@@H]1C[C@@H](C(=O)O)[C@H]2c1cccc(OCCO)c1
VALUE_MEASURED: 0.101 (inactive)
//
MOLECULE: COC(=O)C(CC#Cc1ccc2c(c1)[C@]1(C(=O)N2)[C@H](c2ccc(OCCO)cc2)N2[C@H](c3ccccc3)[C@H](c3ccccc3)OC(=O)[C@H]2[C@@H]1C(=O)Nc1nc2ccccc2s1)C(=O)OC
VALUE_MEASURED: -0.763 (inactive)
//
MOLECULE: COC(=O)[C@@]1(CCS(=O)(=O)c2ccccc2)N=C(c2ccc(OCCCO)cc2)O[C@H]1c1ccccc1CN=[N+]=[N-]
VALUE_MEASURED: -0.74 (inactive)

----------
Reported z-score values follow for various molecules
EXPERIMENTAL_PROTOCOL: A549 cell viability effects, profiling panel, calcein-AM fluorescence, 48 h, basal (AID 1162); further: test concentration not given here
MEASUREMENT_SETUP: higher = more signal

MOLECULE: COC(=O)[C@@]1(Cc2ccc(F)cc2)[C@H]2c3cc(C(=O)N(C)C)n(Cc4ccccc4)c3C[C@H]2CN1C(=O)c1ccccc1
z-score: -0.799

MOLECULE: COc1cc(Br)cc(C(O)C2C=CC3C(=O)N(C)C(=O)C3N2N2CCCCC2)c1OC (stereo not given)
z-score: -1.12

MOLECULE: COc1ccc([Si](C)(C)[C@@H]2[C@@H](CC(=O)N3CCC[C@H]3CO)O[C@]3(C(=O)N(c4ccccc4)c4ccccc43)[C@H]2C)cc1
z-score: 1.61

MOLECULE: C=CCOC(=O)[C@@H]1[C@H]2C(=O)O[C@H](c3ccccc3)[C@H](c3ccccc3)N2[C@H](c2ccc(OCCOC(=O)[C@@H]3C[C@@H]4C(=O)NCC(=O)N4[C@@H]3c3ccc(O)cc3)cc2)[C@@]12C(=O)Nc1ccc(I)cc12
z-score: -0.814

MOLECULE: CCCC[C@@H]1C[C@H]1[C@@H](NC(=O)C(C)(C)C)c1ccc(C(F)(F)F)cc1
z-score: -1.63

MOLECULE: COCCOC(=O)N1C(=O)[C@@]2(c3cc(C#Cc4ccc(OC)cc4)ccc31)[C@H](c1ccccc1OCCO)N1[C@H](c3ccccc3)[C@H](c3ccccc3)OC(=O)[C@H]1[C@@H]2C(=O)NC[C@H](O)c1ccccc1
z-score: -0.796

MOLECULE: O=C(CS)NCCCCCCNC(=O)[C@@H]1C[C@@H]2C(=O)N[C@@H](Cc3ccccc3)C(=O)N2[C@@H]1c1cccc(OCCO)c1
z-score: -0.55

MOLECULE: C=CCC(OC(C)=O)[C@@H]1[C@@H](N(Cc2cccc3ccccc23)C(=O)c2ccc(-c3ccccc3)cc2)c2cc(OCCCO)ccc2N1C(=O)c1ccc2ccccc2c1 (stereo not given in full)
z-score: -0.525

MOLECULE: Cc1nc2cc(Br)ccc2c(=O)o1
z-score: 0.504

MOLECULE: O[C@@H](Cc1ccccc1)[C@H]1C2C=CCCC=C2CN1Cc1cccc(Cl)c1 (stereo not given in full)
z-score: 0.675

MOLECULE: CC(=O)n1cc(C(O)C2C=CC3C(=O)N(c4ccccc4)C(=O)C3N2Nc2ccc([N+](=O)[O-])cc2)c2ccccc21 (stereo not given)
z-score: -0.456

MOLECULE: CC[C@@H]1C=C(C(=O)O)[C@H](c2ccc(Br)cc2)N1S(=O)(=O)c1ccc(C)cc1
z-score: -0.646

MOLECULE: C=CC(=C)[C@H]1Oc2ccccc2S(=O)(=O)N2CCC[C@@H]12
z-score: 0.159

MOLECULE: CN(C)CCCCCCNC(=O)[C@@H]1C[C@@H]2C(=O)N[C@@H](Cc3ccccc3)C(=O)N2[C@@H]1c1ccc(O)cc1
z-score: -0.58

MOLECULE: NCCCCCNC(=O)[C@@H]1C[C@@H]2C(=O)N[C@@H](Cc3ccccc3)C(=O)N2[C@@H]1c1ccc(O)cc1
z-score: -0.119
